Values were extracted from patent US20030148956A1.

# ASSAYED SYSTEM: CRF1R
# ASSAY METHOD TEXT: cell-based or functional assay
Ends that are not written are not given here.

| BINDER | CRF1R Emax |
| --- | --- |
| IVLSLDVPIGLLQILLEQEKEKKRKETNARILARV-NH2 [SEQ ID NO 132] | 8% |
| ZGPPISIDLPFQLLRKMIEIEKQEKEKQQATTNARLLARV (C-terminal amide) [SEQ ID NO 23] | 82% |
| IVLSLDVPIGLLQILLEQRRAAREQATTNARILARV-NH2 [SEQ ID NO 133] | 4% |
| ZGPPISIDLPYILLRKMIEIEKQEKEKQQAANNRLLLDTI (C-terminal amide) [SEQ ID NO 204] | 74% |
| ZGPPISIDLPITLLRKMIEIEKQEKEKQQAANNRLLLDTI (C-terminal amide) [SEQ ID NO 24] | 18% |
| ZGPPISIDLPIQLLRKMIEIEKQEKEKQQATTNARILARV (C-terminal amide) [SEQ ID NO 150] | 5.7% |
| IVLSLDVPIGLLQILLEQRAAREQATTNARILARV-NH2 [SEQ ID NO 136] | 8% |
| DNPSLSIDLPFYLLRTLLELARTQSQRERAEQNAIIFASV-NH2 [SEQ ID NO 183] | 57.5% |
| ZGPPISIDLPYYLLRKMIEIEKQEKEKQQAANNRLLLDTI (C-terminal amide) [SEQ ID NO 40] | 99% |
| ZGPPISIDLPYLLLRKMIEIEKQEKEKQQAANNRLLLDTI (C-terminal amide) [SEQ ID NO 203] | 86% |
| ZGPPISIDLPYTLLRKMIEIEKQEKEKQQAANNRLLLDTI (C-terminal amide) [SEQ ID NO 200] | 99% |
| ZGPPISIDLPIELLRKMIEIEKQEKEKQQAANNRLLLDTI (C-terminal amide) [SEQ ID NO 76] | 7% |
| ZGPPISIDLPFGLLRKMIEIEKQEKEKQQAANNRLLLDTI (C-terminal amide) [SEQ ID NO 68] | 33% |
| ZGPPISIDLPIWLLRKMIEIEKQEKEKQQAANNRLLLDTI (C-terminal amide) [SEQ ID NO 192] | 99% |
| DNPSLSIDLPLILLRTLLELARTQSQRERAEQNAIIFASV-NH2 [SEQ ID NO 175] | 34.8% |
| ZGPPISIDLPTNLLRKMIEIEKQEKEKQQAANNRLLLDTI (C-terminal amide) [SEQ ID NO 59] | 10% |
| IVLSLDVPIGLLQILLEQARQRAAREQATTNARILARV-NH2 [SEQ ID NO 114] | 6% |
| SQEPPISLDLPFYLLREVLEMTKADQLAQQAHSNRKLLDIA-NH2 [SEQ ID NO 96] | 16.3% |
| IVLSLDVPIGLLQILIEIEKQEKEKQQAATTNARILARV-NH2 [SEQ ID NO 168] | 52% |
| ZGPPISIDLPFQLLRKMIEIEKQEKEKQQAAANRLLLDTV (C-terminal amide) [SEQ ID NO 15] | 86% |
| SQEPPISLDLPTYLLREVLEMTKADQLAQQAHSNRKLLDIA-NH2 [SEQ ID NO 106] | 4.8% |
| ZGPPISIDLPIDLLRKMIEIEKQEKEKQQAANNRLLLDTI (C-terminal amide) [SEQ ID NO 28] | 2% |
| ZGPPISIDLPFQLLRKMIEIEKQEKEKQQATNNRLLLATV (C-terminal amide) [SEQ ID NO 12] | 73% |
| IVLSLDVPIGLLQTLLELARTQSQRERAEQNRIIFDSV-NH2 [SEQ ID NO 160] | 10% |
